Data credit: ChEMBL document CHEMBL3045439

- system-name: Ecdysone receptor (Nezara viridula, UniProt E5L6Y0+E5L6Y1)
- Sequence (E5L6Y1 whole entry): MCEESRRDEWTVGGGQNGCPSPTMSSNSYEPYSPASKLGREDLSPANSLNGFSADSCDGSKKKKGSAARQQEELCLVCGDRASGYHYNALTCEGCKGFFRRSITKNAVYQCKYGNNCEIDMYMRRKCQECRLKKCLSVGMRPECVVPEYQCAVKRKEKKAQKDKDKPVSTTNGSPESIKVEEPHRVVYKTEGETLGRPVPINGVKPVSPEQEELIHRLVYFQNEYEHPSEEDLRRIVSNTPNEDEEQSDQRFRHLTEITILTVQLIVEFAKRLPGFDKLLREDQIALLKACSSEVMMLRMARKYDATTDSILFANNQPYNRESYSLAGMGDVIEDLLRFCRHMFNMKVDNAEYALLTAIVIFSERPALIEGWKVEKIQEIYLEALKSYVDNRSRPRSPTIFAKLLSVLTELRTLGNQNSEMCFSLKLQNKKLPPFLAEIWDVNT
- Sequence (E5L6Y0 whole entry): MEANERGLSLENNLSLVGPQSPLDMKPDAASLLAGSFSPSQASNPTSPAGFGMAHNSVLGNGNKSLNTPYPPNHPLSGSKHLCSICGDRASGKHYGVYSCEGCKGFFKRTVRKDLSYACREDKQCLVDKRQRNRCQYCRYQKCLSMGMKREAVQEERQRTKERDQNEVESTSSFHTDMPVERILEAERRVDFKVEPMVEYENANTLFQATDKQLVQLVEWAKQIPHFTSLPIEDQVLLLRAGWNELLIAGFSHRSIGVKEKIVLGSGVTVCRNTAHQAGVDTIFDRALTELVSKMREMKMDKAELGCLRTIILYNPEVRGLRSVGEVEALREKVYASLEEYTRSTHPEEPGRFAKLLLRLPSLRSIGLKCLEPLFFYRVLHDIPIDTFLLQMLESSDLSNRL
- test: Displacement of [3H]PonA from recombinant Nezara viridula EcR11
- Format: protein-complex assay
endpoint: pIC50
Friendly reminder that pIC50 comes from taking -log10 of the concentration in mol/L.

Study these solved cases before continuing.
compound	pIC50
C[C@H]([C@H](O)CCC(C)(C)O)[C@H]1CC[C@@]2(O)C3=CC(=O)[C@@H]4C[C@@H](O)[C@@H](O)C[C@]4(C)[C@H]3CC[C@]12C [ECDYSONE]	4.22
CC(CO)CC[C@@H](O)[C@](C)(O)[C@H]1CC[C@@]2(O)C3=CC(=O)[C@@H]4C[C@@H](O)[C@@H](O)C[C@]4(C)[C@H]3CC[C@]12C (stereo partly specified) [INOKOSTERONE]	5.15
CC(C)CC[C@@H](O)[C@](C)(O)[C@H]1CC[C@@]2(O)C3=CC(=O)[C@]4(O)C[C@@H](O)[C@@H](O)C[C@]4(C)[C@H]3[C@H](O)C[C@]12C [MURISTERONE A]	6.82
CCc1ccc(C(=O)NN(C(=O)c2cc(C)cc(C)c2)C(C)(C)C)cc1 [TEBUFENOZIDE]	4.55
CC(C)CC[C@@H](O)[C@](C)(O)[C@H]1CC[C@@]2(O)C3=CC(=O)[C@@H]4C[C@@H](O)[C@@H](O)C[C@]4(C)[C@H]3CC[C@]12C [PONASTERONE A]	6.60

Then there is this compound:
Exercise: Returns the measured pIC50 for the input compound. Input: CC(C)(O)CC[C@@H](O)[C@](C)(O)[C@H]1CC[C@@]2(O)C3=CC(=O)[C@@H]4C[C@@H](O)[C@@H](O)C[C@]4(C)[C@H]3CC[C@]12C [20-HYDROXYECDYSONE]
Solution: 5.35
